Origin of the recorded values: patent US20260226068A1

molecular target: IL-17A/F (Homo sapiens, UniProt Q16552+Q96PD4); test: IL-17A/F HEK-Blue cell assay (SEAP reporter); conditions: HEK-Blue IL-17A reporter cells, IL17A/F 5 ng/mL, 20 hours, SEAP read at A630; read-out: HEK-Blue IL17AF (IC50 for IL-17A/F inhibition)
pIC50: −log10 of the molar value.
pIC50 listing for selected molecules.

Use the examples below as a reference point.
| MOLECULE | SUBJECT_OF_TEST | pIC50 |
| --- | --- | --- |
| CCn1nccc1C(=O)N[C@H](c1cn2nc(C[C@H]3C[C@@H](C(F)(F)F)CNC3=O)c(C34CCOC(C3)C4)nc2n1)C1CCC(F)(F)CC1 [Compound 250] | IL-17A/F (Homo sapiens, UniProt Q16552+Q96PD4) | 6.00 to 7.00 |
| CCc1nonc1C(=O)N[C@H](c1cn2nc(C[C@H]3C[C@@H](C(F)(F)F)CNC3=O)c(C3CCOCC3)nc2n1)C1CCC(F)(F)CC1 [Compound 149] | IL-17A/F (Homo sapiens, UniProt Q16552+Q96PD4) | 6.00 to 7.00 |
| O=C(N[C@H](c1cn2nc(C[C@H]3C[C@@H](C(F)(F)F)CNC3=O)cnc2n1)C1CCC(F)(F)CC1)c1nonc1C1CC1 [Compound 43] | IL-17A/F (Homo sapiens, UniProt Q16552+Q96PD4) | < 6.00 |
| CCn1nccc1C(=O)N[C@H](c1cn2nc(C[C@@H]3C[C@H](C)CNC3=O)c(C3CCOCC3)nc2n1)C1CCC(F)(F)CC1 [Compound 220] | IL-17A/F (Homo sapiens, UniProt Q16552+Q96PD4) | 6.00 to 7.00 |
| CCn1nccc1C(=O)N[C@H](c1cn2nc(C[C@H]3C[C@@H](C(F)(F)F)CNC3=O)c(N3CCN(C(=O)OC(C)(C)C)[C@@H](C)C3)nc2n1)C1CCC(F)(F)CC1 [Compound 238] | IL-17A/F (Homo sapiens, UniProt Q16552+Q96PD4) | 6.00 to 7.00 |

Continue with the next molecule.
Query: Requested field: pIC50. Item: CCn1nccc1C(=O)N[C@H](c1cn2nc(CC3C[C@@H](C(F)(F)F)CNC3=O)c(N3CCOCC3)nc2n1)C(C1CC1)C1CC1 (single isomer, unassigned) [Compound 112]
Reply: 6.00 to 7.00

* * *

Reported pIC50 values for a set of compounds
Biological target: IL-17A/A (Homo sapiens)
Sequence (Q16552 24-155): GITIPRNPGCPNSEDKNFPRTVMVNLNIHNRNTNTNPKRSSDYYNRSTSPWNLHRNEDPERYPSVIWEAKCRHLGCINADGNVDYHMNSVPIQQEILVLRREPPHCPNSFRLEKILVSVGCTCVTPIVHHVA
Assay: IL-17A/A HEK-Blue cell assay (SEAP reporter)
Details: HEK-Blue IL-17A reporter cells, IL17A/A 5 ng/mL, 20 hours, SEAP read at A630; read-out: HEK-Blue IL17AA (IC50 for IL-17A/A inhibition)
pIC50: −log10 of the molar value.

Consider the reported pIC50 for these compounds:
| TEST_SMILES | pIC50 |
| --- | --- |
| CC(C)c1nc2nc([C@@H](NC(=O)c3ccnn3C)C3CCC(F)(F)CC3)cn2nc1C[C@H]1C[C@@H](C(F)(F)F)CNC1=O | > 7.00 |
| O=C(N[C@H](c1cn2nc(C[C@H]3C[C@@H](C(F)(F)F)CNC3=O)c(C3CCOCC3)nc2n1)C1CCC(F)(F)CC1)c1ccnn1C(F)(F)F | > 7.00 |

The record that follows has no pIC50 shown yet.
Query: Give the measured pIC50 of `CCn1nccc1C(=O)N[C@H](c1cn2nc(C[C@H]3C[C@@H](C(F)(F)F)CNC3=O)c(N3CCC(F)(F)CC3)nc2n1)C1CCC(F)(F)CC1` .
Reply: > 7.00

* * *

biological target: IL-17A/A (Homo sapiens); assay: IL-17A/A HEK-Blue cell assay (SEAP reporter); settings: HEK-Blue IL-17A reporter cells, IL17A/A 5 ng/mL, 20 hours, SEAP read at A630; read-out: HEK-Blue IL17AA (IC50 for IL-17A/A inhibition)
PROPERTY_MEASURED: IC50

Answered examples (2):
| COMPOUND | OBSERVED_VALUE |
| --- | --- |
| CCn1nccc1C(=O)N[C@H](c1cn2nc(C[C@H]3C[C@@H](C(F)(F)F)CNC3=O)c([C@H](C)C3CCOCC3)nc2n1)C1CCC(F)(F)CC1 (single isomer, unassigned) | < 100 nM |
| CC(F)(F)C(=O)N[C@H](c1cn2nc(C[C@H]3C[C@@H](C(F)(F)F)CNC3=O)c(C3CCOCC3)nc2n1)C1CCC(F)(F)CC1 | 100 to 1000 nM |

Query: Look up IC50 with IL-17A/A (Homo sapiens) for this compound: CCn1nccc1C(=O)N[C@H](c1cn2nc(C[C@H]3C[C@@H](C(F)(F)F)CNC3=O)c(C34CCCC(C3)OC4)nc2n1)C1CCC(F)(F)CC1 (stereo partly drawn)
Reply: < 100 nM

* * *

target: IL-17A/F (Homo sapiens, UniProt Q16552+Q96PD4); assay: IL-17A/F HEK-Blue cell assay (SEAP reporter); settings: HEK-Blue IL-17A reporter cells, IL17A/F 5 ng/mL, 20 hours, SEAP read at A630; read-out: HEK-Blue IL17AF (IC50 for IL-17A/F inhibition)
// reported IC50 for each item listed

Some entries whose results are on file:
| COMPOUND | SUBJECT_OF_TEST | OBSERVED_VALUE |
| --- | --- | --- |
| CCn1nccc1C(=O)N[C@H](c1cn2nc(C[C@H]3C[C@@H](C(F)(F)F)CNC3=O)c(C3CCOCC3)nc2n1)C(C1CC1)C1CC1 | IL-17A/F (Homo sapiens, UniProt Q16552+Q96PD4) | 0.1 to 1 µM |
| CCn1nccc1C(=O)N[C@H](c1cn2nc(C[C@H]3C[C@@H](C(F)(F)F)CNC3=O)c(Cn3ccnc3)nc2n1)C1CCC(F)(F)CC1 | IL-17A/F (Homo sapiens, UniProt Q16552+Q96PD4) | 0.1 to 1 µM |
| CCn1nccc1C(=O)N[C@H](c1cn2nc(C[C@H]3C[C@@H](C(F)(F)F)CNC3=O)c(CN(C)C)nc2n1)C1CCC(F)(F)CC1 | IL-17A/F (Homo sapiens, UniProt Q16552+Q96PD4) | > 1 µM |

Query: Bench note: what IC50 did `CCc1nocc1C(=O)N[C@H](c1cn2nc(C[C@H]3C[C@@H](C(F)(F)F)CNC3=O)c(C3CCOCC3)nc2n1)C1CCC(F)(F)CC1` show?
Reply: 0.1 to 1 µM

Query: Note, next up: `CCn1nccc1C(=O)N[C@H](c1cn2nc(C[C@H]3CCCNC3=O)c(C3CCOCC3)nc2n1)C1CCC(F)(F)CC1`
Reply: > 1 µM

* * *

molecular target: IL-17A/A (Homo sapiens, UniProt Q16552); assay: IL-17A/A HEK-Blue cell assay (SEAP reporter); settings: HEK-Blue IL-17A reporter cells, IL17A/A 5 ng/mL, 20 hours, SEAP read at A630; read-out: HEK-Blue IL17AA (IC50 for IL-17A/A inhibition)
pIC50: −log10 of the molar value.
PROPERTY_MEASURED: pIC50

Guide cases for pIC50, answers given:
| COMPOUND | OBSERVED_VALUE |
| --- | --- |
| CCn1nccc1C(=O)N[C@H](c1cn2nc(CC3C[C@@H](C(F)(F)F)CNC3=O)c(N3CC4CC(C3)O4)nc2n1)[C@H]1CCCC(F)(F)C1 (single isomer, unassigned) [Compound 93] | > 7.00 |
| O=C(N[C@H](c1cn2nc(C[C@H]3C[C@@H](C(F)(F)F)CNC3=O)c(C3CCOCC3)nc2n1)C1CCC(F)(F)CC1)OCc1cc(C(F)(F)F)on1 | > 7.00 |
| O=C(N[C@H](c1cn2nc(C[C@H]3C[C@@H](C(F)(F)F)CNC3=O)c(N3CCOCC3)nc2n1)C1CCC(F)(F)CC1)OCc1cc(C(F)(F)F)on1 | > 7.00 |
| CC(F)(F)c1nocc1C(=O)N[C@H](c1cn2nc(C[C@H]3C[C@@H](C(F)(F)F)CNC3=O)c(C3CCOCC3)nc2n1)C1CCC(F)(F)CC1 | > 7.00 |
| Cc1nonc1C(=O)N[C@H](c1cn2nc(C[C@H]3C[C@@H](C(F)(F)F)CNC3=O)c(C3CCOCC3)nc2n1)C1CCC(F)(F)CC1 | > 7.00 |

Query: State the recorded pIC50 for this entry: CCn1nccc1C(=O)N[C@H](c1cn2nc(C[C@H]3C[C@@H](C(F)(F)F)CNC3=O)c(C3COC4(C3)CN(C)C4)nc2n1)C1CCC(F)(F)CC1 (stereo partly drawn)
Reply: 6.00 to 7.00
